B1: Osa-1-4 twister ribozyme (parent)
chain: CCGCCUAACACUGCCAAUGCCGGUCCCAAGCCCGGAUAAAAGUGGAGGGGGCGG

Variants of: B1
Experiment: self-cleavage, relative activity (ratio to wild type); higher = more cleavage; co-transcriptional
Consider the following variants and their measured self-cleavage readings.

# seq text, self-cleavage
rows = [
    ("CCGCCUAACACCGCCAAUGCCGGUCCCCAGCCCGGAUAAAAGUGGAGGGGGCGG", 0.34),
]

Report self-cleavage for `CCGCCUACCACUGCCAAUGCCGGUCCCAAGCCCGGAUAAAAGUGGAGGGGGCGG`
0.07

Give self-cleavage for the following variant: `CCGCCUAACACUGCCAAUGCCGGUCUCUAGCCCGGAUAAAAGUGGAGGGGGCGG`
0.22

Look up and report measured self-cleavage for this entry: `CCGCCUAACACUGCCAAUGCCGGCCCCAAGCUCGGAUAAAAGUGGAGGGGGCGG`
0.06

Specify reported self-cleavage for the variant shown: `CCGCCUAACACUGCGAAUGCCGGUCCCAAGCCCGGAUAAAAGCGGAGGGGGCGG`
0.11

Consider the variant `CCGCCUAACACUGCCAAUGCCGGUCCAAAGCCCGGAUAAAUGUGGAGGGGGCGG` . State its measured self-cleavage.
0.18

Give self-cleavage for `CCGCCUAACACUGCCAAUGCCGGUCCCAAGCCCGGUUAAAAGUGGAUGGGGCGG`
0.31

Output measured self-cleavage for this item: `CCGCCUAACACUGCCAAUGCCGCUCCCACGCCCGGAUAAAAGUGGAGGGGGCGG`
0.02

Fill in self-cleavage for record `CCGCCUAACACUGUCAAUGCAGGUCCCAAGCCCGGAUAAAAGUGGAGGGGGCGG`
0.12

# credit: the RNAGym collection of RNA variant scans (doi:10.1002/anie.201605470)
